// provenance: paper PMC8951219

System: MSA-R2c (p57, major soluble antigen, IPT-domain construct) (Renibacterium salmoninarum)
Test: plate binding assay with immobilized protein, bound aptamer quantified by qPCR
Details: 20 mM Tris-HCl pH 7.4, room temperature, 1 h; wells coated with 50 uL of 2.5 uM protein, 1% BSA block; aptamer 0.0205-41 nM, heated at 95 C for 5 min; no added …
endpoint: Kd (nM)
Write down the numeric answer in nM and omit the unit.

Recorded Kd for ATGATACGGCGACCACCTAACCATTTTCACTGTTTGTTTAATATATATAGTTTTATGGTATAGCGTCGTGTAGGGAAAGA [Aptamer-4] , please? 3
